Assay notes: qHTS assay to identify small molecule agonists of the hypoxia (HIF-1) signaling pathway (AID 1224846)
Assay conditions: HRE-bla ME-180 cells, beta-lactamase ratio, 17 h; series mostly up to 76.8 µM
Records with an inconclusive call do not appear. Activity calls are given as the source filed them. Calls come from the whole dose curve; as a rule, active = well fitted activation curve with a large enough effect in the signal ratio in the repeat runs (not every such curve was filed as active); inconclusive = weak or mixed curves; inactive = flat fitted curve, though single readings scatter; the % refers to the signal ratio.
Parameter measured: activation

>>> df
                                   compound  parameter_measured  assay_value
0                        CC(C)CCCCCOC(=O)CS          activation     inactive
1  CCC(C(=O)O)c1ccc(N2Cc3ccccc3C2=O)cc1 (stereo not drawn)          activation     inactive
2  C/C(=C(\CCO)SS/C(CCO)=C(\C)N(C=O)Cc1cnc(C)nc1N)N(C=O)Cc1cnc(C)nc1N          activation     inactive
